Would you mind telling me the reported Reporter (RLU) of each entry?
testedTarget: 4-1BB on transfected NF-κB Jurkat cells (UniProt Q07011 24-255, limits assumed)
Sequence (Q07011 24-255 limits assumed): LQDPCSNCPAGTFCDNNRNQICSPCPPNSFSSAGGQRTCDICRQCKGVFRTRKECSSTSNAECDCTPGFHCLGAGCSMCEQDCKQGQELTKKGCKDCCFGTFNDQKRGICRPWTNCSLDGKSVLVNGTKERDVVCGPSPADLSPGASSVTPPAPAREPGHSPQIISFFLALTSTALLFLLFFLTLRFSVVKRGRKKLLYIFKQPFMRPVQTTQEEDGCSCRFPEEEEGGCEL
experimentalProtocol: cell-based or functional assay
// return numeric value only (unit: RLU, not printed)

Look at this binder and give its reported Reporter (RLU). 4E10 (ligand, also called 4-1BBL variant 4E10 (phagemid clone, bacterial supernatant)) 4-1BBL variant: ACPWAVSGARASPGSAASPRLREGPELSPDDPAGLLDLRQGMFAQLVAQNVLLIDGPLSWYPDPGLAGVSLTGGLSYKEDTKELVVAKAGVYYVFFQLELRRVVAREGSGSVSLALHLQPLRSAAGAAALALTVDLPPASSEARNSAFGFQGRLLHLSAGQRLGVHLHTEARARHAMQLTQGATVLGLFRVTPEIPAGLPSPRSE 7360

Return reported Reporter (RLU); argument: 8B10 (ligand, also called 4-1BBL variant 8B10 (phagemid clone, bacterial supernatant)) 4-1BBL variant: ACPWAVSGARASPGSAASPRLREGPELSPDDPAGLLDLRQGMFAQLVAQNVLLIDGPLSWYTDPGLAGVSLTGGLSYKEDTKELVVAKAGVYYVFFQLELRRVVAGMGSGSVSLALHLQPLRSAAGAAALALTVDLPPASSEARNSAFGFQGRLLHLSAGQRLGVHLHTEARARHSWQLTQGATVLGLFRVTPEIPAGLPSPRSE 8820

Consider the binder shown here: 5D9 (ligand, also called 4-1BBL variant 5D9 (phagemid clone, bacterial supernatant)) 4-1BBL variant: ACPWAVSGARASPGSAASPRLREGPELSPDDPAGLLDLRQGMFAQLVAQNVLLIDGPLSFYSDPGLAGVSLTGGLSYKEDTKELVVAKAGVYYVFFQLELRRVVAGTGSGSVSLALHLQPLRSAAGAAALALTVDLPPASSEARNSAFGFQGRLLHLSAGQRLGVHLHTEARARHAWQMTQGATVLGLFRVTPEIPAGLPSPRSE What is its recorded Reporter (RLU)? 4780
